experiment: yeast display, Sf9 membrane polyspecificity reagent, FACS + sequencing; frameworks hold sequencing errors
Parameter: polyreactivity (PSR sort gate)

Below, 5 sequences whose answers are already recorded.
[[record]]
sequence = "QVQLVESGGGLVQAGGSLRLSCAASGFMFSRYGMGWYRQAPGKERELVAAISGSCGSTYYADSVKGRFTISRDNAKNTVYLQMKSLKPEDTAFYLCATAYSWSNSDWFAYSYDYWGHGTQVTVSS"
recorded_value = "low polyreactivity"

[[record]]
sequence = "QVQLVESGGGLVQAGGSLRLSCAASGRTFLIYAMGWYRQAPGKETEFVAAIRGRGGSTYYADSVKGRFTISRDNAKNTVYFQMNCLKPVDTAVYYCAATFPGRSYRIRGYGYDYWGQGTQVTVSS"
recorded_value = "high polyreactivity"

[[record]]
sequence = "QVQLVESGGGLVQAGGSLRLSCAASGSIFYYYAMARYRPAPGKERELVASITSSGGTTSYADSVKGRFRISRDNAKNTVYLQMISLKPEDTAVYYCNAQVYRYRIGYDYWGQGTQVTVSS"
recorded_value = "low polyreactivity"

[[record]]
sequence = "QVQLVESGGGLVQAGGSLRLSCAASGSIFQYNAMGWYRQAPGKEREFVAAITRGGGTYYADSVKGRFTISRDNAKKTVYLQMNSLKPEDTAVYYCAAQSRTSYRFNYWGQGTQVTVSS"
recorded_value = "high polyreactivity"

[[record]]
sequence = "QVQLVESGGGLVQAGGSLRLICAASGFIITGNAMGWYRQAPGKERELVAAITSGGNTYYADSVKGRFTISRDNAKNTVYLQMISMKPEDTAVYYCAKYGPHWRILMEYWGQGTQVTVSS"
recorded_value = "low polyreactivity"


Quick one: polyreactivity (PSR sort gate) of QVQLVESGGVLVQAGGSLRLSCAASGRIFGENAMGWYRQAPGKEREFVAVISISDASTYYADSVKGRFTISRDNAKNTVYLQMNSLKPEDTAVYYCADDLTDFLYVASDYWGQGTQVTVSS ? low polyreactivity

Also check QVQLVESGGGLVQAGGSLRLSCAASGLTISTYAMGWYIQAPGKDRELVATITYSGSSTYADSVKGRFTISRDNAKNTVYLQMNSLKPEDTAVYYCAAFTYHGNPSEYYPDTVGFYYWGQGTQVSVSS low polyreactivity

Same again, this time with QVQLVESGGGLVQAGGSLRLSCAASGITFYRNAMGWYRQAPGKERELVAAISWSGGRTYYADSVKGRFTISRDNAKNTVYLQMNSLKPEDTAVYYCNKYTHYYDYDYWGQGTQVTVSS high polyreactivity

Now this one: QVQIVESGGGLVQAGGSLRLTCAASGYIFTYYAMGWYRQAPWKERDLVAAISGSDGNTYYADSVKGRFTISRDNAKNTVYLQMNSLKPEDTAVYYCAKSGGLTFRSQSYDYWGQGTQVTVSS low polyreactivity

Continue with QVQLVESGGVLVQAGGSLRLSCAASRGIFSGYAMGWYRQAPGKERELVASITRRGSSTYYADSVKGPFTISRDSAKNTVYLQMNSLNPEDTAVYYCHAVLRYHVLYRGYDYWGQGTQLTVSS high polyreactivity

Entry to check: QVQLLESGGGLLQAGASLLLSCAASGNIFYRNAMGWYRQAPGKERELVAAISSGGITYYADSVKGRYTISRDNAKNSVSLQMNSLKPEDTAVYYCAAYIRNWRATYEYWGQGSQVTVSS high polyreactivity
